Listed next: entries and their corresponding pKi.
# study target: CDK1/CyclinB (Homo sapiens, UniProt P06493)
# Sequence (P06493 whole entry, species assumed): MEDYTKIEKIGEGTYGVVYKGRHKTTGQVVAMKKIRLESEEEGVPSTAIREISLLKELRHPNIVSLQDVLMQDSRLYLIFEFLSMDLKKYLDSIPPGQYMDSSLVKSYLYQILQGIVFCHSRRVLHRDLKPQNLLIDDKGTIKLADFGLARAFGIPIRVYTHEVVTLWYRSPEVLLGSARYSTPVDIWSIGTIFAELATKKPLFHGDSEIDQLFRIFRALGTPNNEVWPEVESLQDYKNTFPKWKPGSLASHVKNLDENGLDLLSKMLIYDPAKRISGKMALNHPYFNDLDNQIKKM
# Sequence (P14635 whole entry partner, species assumed): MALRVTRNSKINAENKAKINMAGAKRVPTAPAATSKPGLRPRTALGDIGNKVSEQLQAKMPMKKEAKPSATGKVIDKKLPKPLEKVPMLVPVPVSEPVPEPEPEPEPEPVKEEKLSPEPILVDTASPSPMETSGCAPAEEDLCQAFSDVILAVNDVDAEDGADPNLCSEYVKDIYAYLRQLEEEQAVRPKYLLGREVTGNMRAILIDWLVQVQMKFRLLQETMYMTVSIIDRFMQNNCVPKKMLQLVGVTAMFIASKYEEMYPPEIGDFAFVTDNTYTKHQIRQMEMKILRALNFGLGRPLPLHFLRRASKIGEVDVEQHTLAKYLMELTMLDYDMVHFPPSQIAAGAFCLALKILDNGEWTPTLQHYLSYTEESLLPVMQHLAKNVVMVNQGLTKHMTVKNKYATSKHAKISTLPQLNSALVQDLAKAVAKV
# assay: ADP Glo kinase assay, CDK1/CyclinB
# details: Km ATP, read-out: Enzymatic inhibition, Ki, CDK1 B
pKi: −log10 of the molar value.

As a guide, the following entries are already answered.
{"columns": ["smiles input", "study target", "pKi"],
 "data": [
  ["CS(=O)(=O)N1CCN(c2ccc(Nc3nccc(-c4cnc5ccc(-c6ccccc6)cn45)n3)cn2)CC1", "CDK1/CyclinB (Homo sapiens, UniProt P06493)", "< 5.30"],
  ["CS(=O)(=O)N1CCN(c2ccc(Nc3nccc(-c4cnc5ccc(-c6cncnc6)cn45)n3)cn2)CC1", "CDK1/CyclinB (Homo sapiens, UniProt P06493)", "< 5.30"]
]}

// lookup pKi for CN1CCN(c2ccc(Nc3nccc(-c4cnc5ccc(-c6cncnc6)cn45)n3)cn2)CC1
< 5.30
